Tested on: Vero E6 infected with SARS-CoV-2
assay-overview: inhibition of SARS-CoV-2 cytopathic effect; higher = more antiviral protection, active = above 15
reported-conditions: 10000 nM; 48 h
test-readout: inhibition of SARS-CoV-2 cytopathic effect

compound | target-under-test | value
O=C1c2ccccc2C(=O)C1c1ccccc1 [phenindione] | Vero E6 infected with SARS-CoV-2 | -3.42% (inactive)
CN(C(=O)Cc1ccc(Cl)c(Cl)c1)[C@H](CN1CCCC1)c1ccccc1 | Vero E6 infected with SARS-CoV-2 | 34.8% (active)
CN(C)c1ccc2nc3ccc(=[N+](C)C)cc-3sc2c1 [methylene-blue] | Vero E6 infected with SARS-CoV-2 | -7.29% (inactive)
COc1cc(SC)ccc1C(=O)N1CCC(Cc2ccccc2)CC1 | Vero E6 infected with SARS-CoV-2 | 7.35% (inactive)

## Input GET /values?readout=inhibition of SARS-CoV-2 cytopathic effect&system=Vero E6 infected with SARS-CoV-2&item= COc1cccc(CCc2ccccc2OCC[C@@H]2C[C@@H](O)CN2C)c1
## Output -0.59% (inactive)

## Input Field: inhibition of SARS-CoV-2 cytopathic effect (Vero E6 infected with SARS-CoV-2). Entry: CC1=C(/C=C/C(C)=C/C=C/C(C)=C/C(=O)O)C(C)(C)CCC1 [tretinoin]
## Output 7.6% (inactive)

## Input # get_value(readout= inhibition of SARS-CoV-2 cytopathic effect, system= Vero E6 infected with SARS-CoV-2) for CN(C)CCn1cc(S(=O)(=O)c2cccc(F)c2)c2cccnc21
## Output -1.97% (inactive)

## Input Give inhibition of SARS-CoV-2 cytopathic effect (Vero E6 infected with SARS-CoV-2) of the following compound: C=CC[N@@+]12CC[C@@]34c5ccccc5N5/C=C6/[C@H]7C[C@H]8[C@@]9(CC[N@@+]8(CC=C)C/C7=C/CO)c7ccccc7N(/C=C(/[C@@H](C[C@@H]31)/C(=C\CO)C2)[C@H]54)[C@@H]69 [alcuronium]
## Output 4.13% (inactive)

====

System: Vero E6 infected with SARS-CoV-2
assay-overview: inhibition of SARS-CoV-2 cytopathic effect; higher = more antiviral protection, active = above 15
reported-conditions: 10000 nM; 48 h
test-readout: inhibition of SARS-CoV-2 cytopathic effect (%)
Expressed in %, but write only the number.

Answered cases to consult:
molecule | value
COc1cc2nccc(Oc3ccc(NC(=O)NC4CC4)c(Cl)c3)c2cc1C(N)=O | 8.44
CNC(=O)c1cc(Oc2ccc(NC(=O)Nc3cc(C(C)(C)C)nn3-c3ccc4ncccc4c3)c(F)c2)ccn1 | 8.96
C[C@H](O)[C@H](O)[C@H]1CNc2nc(N)[nH]c(=O)c2N1 | -1.44
COc1cc(C(=O)NCC2(N(C)C)CCCC2)cc(OC)c1OCc1ccccc1 | -8
C#C[C@]1(O)CC[C@H]2[C@@H]3CCC4=Cc5oncc5C[C@]4(C)[C@H]3CC[C@@]21C | 6.39

## Input Query: inhibition of SARS-CoV-2 cytopathic effect; subject: COc1cnc(NS(=O)(=O)c2ccc(N)cc2)nc1
## Output 2.89

## Input Fill blank: measured inhibition of SARS-CoV-2 cytopathic effect of the molecule CCCCCCNC(=O)Nc1ccc(S(=O)(=O)Nc2ccc(CCNC[C@H](O)COc3ccc(O)cc3)cc2)cc1 is ____.
## Output 1.5

## Input Quick one: inhibition of SARS-CoV-2 cytopathic effect of CCC(C)(C)C(=O)O[C@H]1C[C@@H](C)C=C2C=C[C@H](C)[C@H](CC[C@@H]3C[C@@H](O)CC(=O)O3)[C@H]21 ?
## Output 5.01

## Input Look at this molecule and give its reported inhibition of SARS-CoV-2 cytopathic effect. Cc1c(C2CCN(CCc3ccccc3)CC2)noc1-c1ccc(Cl)cc1
## Output -5.7

Measured values drawn from the supplement of paper PMC13380429 for this set.
